Source of measurements: patent US20230235004A1

- Target desc: T1, mouse MAdCAM expressed on cells (mouse, UniProt Q61826 22-405)
- T1 construct: whole, on cells
- T1 sequence (looked up): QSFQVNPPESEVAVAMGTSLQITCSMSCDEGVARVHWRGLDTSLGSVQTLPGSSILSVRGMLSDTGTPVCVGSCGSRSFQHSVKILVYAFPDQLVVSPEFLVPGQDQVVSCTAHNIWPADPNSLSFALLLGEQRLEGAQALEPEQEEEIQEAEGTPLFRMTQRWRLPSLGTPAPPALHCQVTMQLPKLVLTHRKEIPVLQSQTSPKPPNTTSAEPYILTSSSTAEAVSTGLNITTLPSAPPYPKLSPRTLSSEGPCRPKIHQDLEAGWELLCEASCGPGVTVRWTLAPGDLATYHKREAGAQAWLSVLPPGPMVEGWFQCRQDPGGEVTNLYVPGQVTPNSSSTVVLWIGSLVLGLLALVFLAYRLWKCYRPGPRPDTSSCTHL
- Protocol text: cell binding

Binder	binding result
MAdCAM Antibody Table 2 clone 43 (antibody, V domains shown, IgG format) VH: QVQLVQSGAEVKKPGASVKVSCKASGYTFTSYGISWVRQAPGQGLEWMGWMHPKSGDTGLTQKFQGRVTMTRDTSTSTVYMELSSLRSEDTAVYYCARDTPYYYYGMDVWGQGTTVTVSS VL: DIQMTQSPSSLSASVGDRVTITCRASQSISSWLAWYQQKPGKAPKLLIYAASSLQSGVPSRFSGSGSGTDFTLTISSLQPEDFATYYCQQSYSVPITFGQGTKVEIK	no binding
MAdCAM Antibody Table 2 clone 61 (antibody, V domains shown, IgG format) VH: QVQLVQSGAEVKKPGASVKVSCKASGDTFTGYYIHWVRQAPGQGLEWMGWINPNSGGTNYAQKFQGRVTMTRDTSTSTVYMELSSLRSEDTAVYYCARSGLWLGSYYGMDVWGQGTLVTVSS VL: DIQMTQSPSSLSASVGDRVTITCRASQTISIWLAWYQQKPGKAPKLLIYDASTLQSGVPSRFSGSGSGTDFTLTISSLQPEDFATYYCQQYSSYPLTFGQGTKVEIK	no binding
MAdCAM Antibody Table 2 clone 71 (antibody, V domains shown, IgG format) VH: QVQLVQSGAEVKKPGASVKVSCKASGYTFTSYYMHWVRQAPGQGLEWMGIINPSGGSTSYAQKFQGRVTMTRDTSTSTVYMELSSLRSEDTAVYYCARDSVAGTGGRYYGMDVWGQGTLVTVSS VL: DIQMTQSPSSLSASVGDRVTITCRASQGISNYFAWYQQKPGKAPKLLIYAASSLQGGVPSRFSGSGSGTDFTLTISSLQPEDFATYYCQQSYSLPYTFGQGTKLEIK	no binding
